Target: M4 muscarinic receptor (Homo sapiens, UniProt P08173)
Construct: expressed in transfected cells; host or cells: CHO cells (M4-CHO, under puromycin, zeocin and blasticidin selection)
Sequence (P08173 1-479): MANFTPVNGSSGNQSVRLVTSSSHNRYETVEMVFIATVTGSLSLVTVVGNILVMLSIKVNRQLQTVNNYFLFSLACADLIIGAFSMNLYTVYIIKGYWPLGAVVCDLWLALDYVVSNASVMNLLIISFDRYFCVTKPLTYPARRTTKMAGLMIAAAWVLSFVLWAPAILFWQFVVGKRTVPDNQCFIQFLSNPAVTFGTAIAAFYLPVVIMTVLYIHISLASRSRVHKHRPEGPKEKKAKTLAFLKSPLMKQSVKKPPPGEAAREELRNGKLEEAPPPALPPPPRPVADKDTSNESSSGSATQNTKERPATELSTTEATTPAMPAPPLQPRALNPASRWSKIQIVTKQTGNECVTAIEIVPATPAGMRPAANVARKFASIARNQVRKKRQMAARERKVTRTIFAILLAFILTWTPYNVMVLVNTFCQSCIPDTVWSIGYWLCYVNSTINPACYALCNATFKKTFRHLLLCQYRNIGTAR
Experiment: Functional mobilization of intracellular calcium (FLIPR, Fluo-3), M4-CHO cells
Assay type: cell-based
Settings: compound nos. 1-454; 100% efficacy is the maximum response obtained with the Carbachol control; read-out: M4 Efficacy
# Emax annotations

Asked: Could you tell me which Emax is on file for `CN([C@H]1CC2(CCN(C[C@H]3C[C@H]4CC[C@H]3C4)CC2)c2ccccc21)S(C)(=O)=O` ?
Given back: < 55%

Asked: Give the measured Emax of Cc1ccc2c(c1)C1(CCN(C3CC4CCC3C4)CC1)CN2S(C)(=O)=O (stereo not shown) .
Given back: > 70%

Asked: Data request, read-out Emax, for CCOC(=O)N1C2CCC1CC(N1CCC3(CC1)CN(C(C)=O)c1ccc(C)cc13)C2 (stereo not shown)
Given back: 55 to 70%

Asked: Please look up its Emax: `CC(=O)N1CC2(CCN(C3CCN(C(=O)OC4CCC4)CC3)CC2)c2cc(C)ccc21`
Given back: > 70%
